These data points were gathered from patent US20110160250A1.

experiment: Pharmacokinetics of Compound I in monkey after intravenous and oral administration (plasma LC/MS/MS, noncompartmental analysis); assay type: in vivo, male rhesus monkeys; settings: male, rhesus, rhesus monkey, plasma, oral, 5 mg/kg, mean ± SD
measurement-type: AUC (ng·h/mL)

> print(dat)
                                smiles.repr  measurement.type  endpoint.value
1  O=C(NCc1cn(-c2ccc(-n3ccccc3=O)cc2)cn1)c1ccc(Cl)s1               AUC           42100

* * *

test: Pharmacokinetics of Compound I in monkey after intravenous and oral administration (plasma LC/MS/MS, noncompartmental analysis); assay type: in vivo, male rhesus monkeys; conditions: male, rhesus, rhesus monkey, plasma, iv, 1 mg/kg, intravenous, 1 mg/kg, mean ± SD, read-out: Vss (volume of distribution at steady-state)
measurement-type: Vd

> print(dat)
                                   compound  measurement.type  endpoint.value
1  O=C(NCc1cn(-c2ccc(-n3ccccc3=O)cc2)cn1)c1ccc(Cl)s1 [Compound I]                Vd      0.353 L/kg
